B1: Zinc finger homeobox protein 4, residues 2562 to 2617; numbered along this chain, Q86UP3 (parent)
chain: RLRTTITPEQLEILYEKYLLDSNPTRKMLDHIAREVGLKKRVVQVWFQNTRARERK

variants of: B1; assay: abundance fitness (aPCA) (normalised: wild type 0, dead -1); higher = more abundant; growth selection in yeast, the domain comes from the species named; conditions: Homo sapiens
recorded.endpoint: abundance fitness
Answers are plain numbers.

Solved cases below.
Y18C; -0.817
P24Q; -0.929
K39W; -0.779
S22Y; -0.772
K27D; 0.478
E35N; -0.358
I32G; -0.945
K17H; -0.441

For every item below, please supply its abundance fitness.
1. I32V
2. R26Q

### Response
[-0.204, 0.369]

### Prompt Note abundance fitness for the variant shown: N23D
### Response -0.039
